Cited source: patent US20250320278A1

Molecular target: T1, SARS-CoV-2 N protein, full-length (SARS-CoV-2, UniProt P0DTC9 1-419)
T1 construct: mature; also called SARS-CoV-2 nucleoprotein
Assay: Octet (BLI) kinetics

{"binder": "NP3-E2 (antibody, V domains shown) VH: EVQLQQSGPEVVRPGVSVKISCKGSGYTFTDYALHWVKQSHTKSLEWIGVISTYSGTTNYNQNFKGKATMAVDKSSSTAYMELARLTSEDSAIYYCASGGNYGLDYWGQGTSVTVSS VL: DIVMTQSHKFMSTSVGDRVSITCKANQDVGSAVAWYQEKPGQSPKLLIYWTSTRHTGVPDRFTGNGSGTDFTLTISNVQSEDLVDYFCQQYSRYPLTFGSGTKLELK", "Kd": "0.57 nM"}
{"binder": "NP3-H9 (antibody, V domains shown) VH: QIQLVQSGPELKKPGETVKISCKASGYTFTDYPIHWVKQAPGKGLKWMGWINAETGEPTYADDFKGRFVVSLETSASTAYLQINNLKNEDTATFFCARHYRYDEAWFVYWGQGTLVTVSA VL: DVQITQSPSSLSVSVGETVTITCRASENIYSNLAWYQQKQGKSPQLLVYAATDLADGVPSRFSGSGSGTHYSLKINSLQSEDFGSFYCQHFWGTPWTFGGGTKLEIK", "Kd": "5.2 nM"}
{"binder": "NP3-B9 (antibody, V domains shown) VH: EVQLQQSGPELKKPGETVKISCKTSGYTFTNCGMHWVKQAPGKGLKWMGWINTYTGEPTYADDFKGRFAFSLETSVNTAYLQINNLKSEDTASYFCARRDDVYYVAGFDYWGQGTTLTVSS VL: DIQMTQSPASLSVSVGETVTITCRASENIYSNLAWYQQKQGKSPQLLVNGATDLADGVPSRFSGSGSGTQYSLKINSLQSEDFGSYYCQLFWGTPWTFGGGTKLEIK", "Kd": "0.38 nM"}
{"binder": "NP3-E11 (antibody, V domains shown) VH: EVQLQQSGPELVRPGVSVKISCKGSGYTFTDYVMHWVKQSHAKSLEWIGVISTYSGNTNYNQKFKGKATMTVDKSSNTVYMELARLTSEDSAIYYCTRGTGDFDYWGQGTTLTVSS VL: DIVMTQSHKFMSTSVGDRVSITCKASQDVGSAVAWYQQKPGQSPKLLIYWTSTRHTGVPDHFTGSGSGTDFTLTINNVQSEDLADYFCHQYSSYPYTFGGGTKLEIK", "Kd": "1.23 nM"}
